Molecular target: T1, human BCMA on BCMA expressing cell lines (human, UniProt Q02223 1-184)
T1 sequence: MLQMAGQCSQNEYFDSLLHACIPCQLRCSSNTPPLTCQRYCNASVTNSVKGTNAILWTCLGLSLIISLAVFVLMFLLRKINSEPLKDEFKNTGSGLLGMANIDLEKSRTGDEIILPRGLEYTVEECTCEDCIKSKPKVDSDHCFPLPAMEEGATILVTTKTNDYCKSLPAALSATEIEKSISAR
Assay: cell-based or functional assay
Binary call on TDCC EC50 (EJM cells): True from 0.06 nM upward, False beneath that.

Is reported TDCC EC50 (EJM cells) greater than or equal to 0.06 nM here: BCMA targeting trispecific protein 01F05 (other, trispecific; not shown: The C-terminal 6xHis tag is left out because it follows these missing domains) VHH: EVQLVESGGGLVQPGRSLTLSCAASTNIFSSSPMGWYRQAPGKQRELVAAIHGFSTWYADSVKGRFTISRDNAKNSIYLQMNSLRPEDTALYYCNKVPWGRYHPRNVYWGQGTQVTVSS
False

Form field: TDCC EC50 (EJM cells) at least 0.06 nM? Entry: BCMA targeting trispecific protein 02G08 (other, not shown: large carriers; small tags and cut ends, trispecific) VHH: EVQLVESGGGLVQPGRSLTLSCAASTNIDSISPMGWYRQAPGKQRELVAAIHGESTLYADSVKGRFTISRDNAKNSIYLQMNSLRPEDTALYYCNKVPWGDYHPRNVTWGQGTQVTVSS
False

Decide: TDCC EC50 (EJM cells) of BCMA targeting trispecific protein 02H11 (other, trispecific; not shown: the C-terminal 6xHis tag follows those domains and is left out) VHH: EVQLVESGGGLVQPGRSLTLSCAASTNITSISPMGWYRQAPGKQRELVAAIHGESTLYADSVKGRFTISRDNAKNSIYLQMNSLRPEDTALYYCNKVPWGDYHPRNVYWGQGTQVTVSS >= 0.06 nM?
True

Hi, just wondering whether BCMA targeting trispecific protein 01C05 (other, not shown: large carriers; small tags and cut ends, trispecific) VHH: EVQLVESGGGLVQPGRSLTLSCAASTNIFSSSPMGWYRQAPGKQRELVAAIHGFKTLYADSVKGRFTISRDNAKNSIYLQMNSLRPEDTARYYCNKVPWGDYHPGNVYWGQGTQVTVSS shows TDCC EC50 (EJM cells) of 0.06 nM or higher.
False

Dear colleague, could you confirm whether BCMA targeting trispecific protein 01B08 (other, not shown: large carriers; small tags and cut ends, trispecific) VHH: EVQLVESGGGLVQPGRSLTLSCAASTNIESISPMGWYRQAPGKQRELVAAIHGSSTLYADSVKGRFTISRDNAKNSIYLQMNSLRPEDTALYYCNKVPWGRYHPRNVYWGQGTQVTVSS has TDCC EC50 (EJM cells) at or above 0.06 nM?
True
